System: A. fumigatus MX 5944
Assay: MEC assay (Example 31)
Format: cell-based
Details: RPMI pH 7.0, 35° C., 24-48 hr
# MEC per entry
Give just the number in µg/mL; leave the unit off.

Worked cases, MEC given:
CC[C@H](C)C[C@H](C)CCCCCCCCC(=O)N[C@H]1C[C@@H](O)[C@@H](OCCN)NC(=O)[C@@H]2[C@@H](O)CCN2C(=O)[C@H]([C@H](O)CCNC(=O)CCNC(=O)[C@H](Cc2ccccc2)NC(=O)[C@H](CC(C)C)NC(=O)[C@H](CCSC)NC=O)NC(=O)[C@H]([C@H](O)[C@@H](O)c2ccc(O)cc2)NC(=O)[C@@H]2C[C@@H](O)CN2C(=O)[C@H]([C@@H](C)O)NC1=O :: 0.12
CC[C@H](C)C[C@H](C)CCCCCCCCC(=O)N[C@H]1C[C@@H](O)[C@@H](NCCN)NC(=O)[C@@H]2[C@@H](O)CCN2C(=O)[C@H]([C@H](O)CCNC(=O)CCNC(=O)[C@H](Cc2ccccc2)NC(=O)[C@H](CC(C)C)NC(=O)[C@H](CCSC)NC=O)NC(=O)[C@H]([C@H](O)[C@@H](O)c2ccc(O)cc2)NC(=O)[C@@H]2C[C@@H](O)CN2C(=O)[C@H]([C@@H](C)O)NC1=O :: 1

Switching to the query record.
MEC recorded for this compound, `CC[C@H](C)C[C@H](C)CCCCCCCCC(=O)N[C@H]1C[C@@H](O)[C@@H](NCCN)NC(=O)[C@@H]2[C@@H](O)CCN2C(=O)[C@H]([C@H](O)CCNC(=O)CCNC(=O)[C@H](Cc2ccccc2)NC(=O)[C@H](CC(C)C)NC(=O)[C@H](CCSC)NC(C)=O)NC(=O)[C@H]([C@H](O)[C@@H](O)c2ccc(O)cc2)NC(=O)[C@@H]2C[C@@H](O)CN2C(=O)[C@H]([C@@H](C)O)NC1=O` , is 1
